Trimeric HA Binding RLU by entry:
Test Target: recombinant homotrimeric HA, A/Wisconsin/67/05 H3N2 (Influenza A virus A/Wisconsin/67/05 (H3N2))
Measurement Description: trimeric HA microarray, transfection set 2
Applied Conditions: remark: other sources report otherwise
Please respond with the number in RLU and leave the unit unwritten.

>>> observed("TCN-522 (3212_I12) (antibody, V domains shown) VH: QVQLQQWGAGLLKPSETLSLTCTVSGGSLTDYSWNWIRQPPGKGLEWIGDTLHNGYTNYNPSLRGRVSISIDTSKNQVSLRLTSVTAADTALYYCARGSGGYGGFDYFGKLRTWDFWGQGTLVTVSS VL: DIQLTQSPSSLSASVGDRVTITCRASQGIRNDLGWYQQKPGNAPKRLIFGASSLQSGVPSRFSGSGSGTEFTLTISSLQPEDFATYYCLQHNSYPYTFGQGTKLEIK")
3350

Let us move to another entry and its Trimeric HA Binding RLU.
Q. Please look up its Trimeric HA Binding RLU: TCN-527 (5086_C06) (antibody, V domains shown) VH: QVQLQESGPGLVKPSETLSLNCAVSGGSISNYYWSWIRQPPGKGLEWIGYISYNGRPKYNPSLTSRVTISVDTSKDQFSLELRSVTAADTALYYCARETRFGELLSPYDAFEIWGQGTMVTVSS VL: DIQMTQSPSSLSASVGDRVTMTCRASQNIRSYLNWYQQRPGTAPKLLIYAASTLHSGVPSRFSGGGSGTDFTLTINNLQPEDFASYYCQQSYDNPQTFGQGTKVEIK
A. 35800
